- Test system: HS729
- Experiment notes: relative viability vs DMSO control (72 h) (fraction); higher = more viable cells
- Settings: 1.111 µM
Value kind: relative viability

> print(dat)
                                   compound  result
1  Cn1ncnc1[C@H]1c2n[nH]c(=O)c3cc(F)cc(c23)N[C@@H]1c1ccc(F)cc1 [Talazoparib]   0.895
2  CCN1C(=O)N(c2c(F)c(OC)cc(OC)c2F)Cc2cnc3[nH]c(CN4CCOCC4)cc3c21 [Pemigatinib]   0.544
3  COc1cc(OC)c(/C=C/S(=O)(=O)Cc2ccc(OC)c(NCC(=O)O)c2)c(OC)c1 [Rigosertib]   0.625
4  CCC(=O)N1CC[C@H](Nc2ncnc3c2CN(c2cnc(OC)c(C(F)(F)F)c2)CC3)C1 [Leniolisib]   0.838
5  C[C@H](Nc1ncnc2nc[nH]c12)c1cc2cccc(Cl)c2c(=O)n1-c1ccccc1 [Duvelisib]   0.863
6  CNC(=O)c1ccccc1Sc1ccc2c(/C=C/c3ccccn3)n[nH]c2c1 [Axitinib]   0.698
7  CN1CCN(c2ccc(C(=O)Nc3n[nH]c4ccc(Cc5cc(F)cc(F)c5)cc34)c(NC3CCOCC3)c2)CC1 [Entrectinib]   0.832
